Tested on: Fibroblast
Test Summary: Incucyte cell viability with human fibroblast; further: unitless GR value; below 1 slowed growth and below 0 cell loss
Assay type: toxicity, cell-based
Test Conditions: 6 h, 10 µM, compound concentration 10 uM, replicate number 2
Record form. Attribute: Growth Rate. Fill in for each entry.

Given item Cl.Cl.O=[N+]([O-])c1ccc(CN2CCOCCOCCN(Cc3ccc([N+](=O)[O-])cc3)CCOCC2)cc1 , the value recorded as its Growth Rate is -0.71

Given item CCOP(=O)(OCC)C(=Cc1cc(C(C)(C)C)c(O)c(C(C)(C)C)c1)P(=O)(OCC)OCC , the value recorded as its Growth Rate is 0.08

Given item C[C@H](NC(=O)c1cc(Cl)ccc1Oc1ccc(F)cc1)c1ccc(C(=O)O)cc1 , the value recorded as its Growth Rate is -0.71

Given item Clc1cccc(Nc2nccc(NCCCN3CCOCC3)n2)c1 , the value recorded as its Growth Rate is 0.14

Given item COc1ccc2c(O[C@@H]3C[C@H]4C(=O)N[C@]5(C(=O)NS(=O)(=O)C6(C)CC6)CC5/C=C\CCCCC[C@H](NC(=O)c5ccn(C)n5)C(=O)N4C3)cc(OC(C)C)nc2c1C (stereo partly drawn) , the value recorded as its Growth Rate is -0.88

Given item CCCNc1ccc2ncc(-c3ccncc3)n2n1 , the value recorded as its Growth Rate is 0.27

Given item O=C(Nc1ccccc1Cl)c1cnc2ccc(C3CCNCC3)cn12.O=C(O)C(=O)O , the value recorded as its Growth Rate is -1

Given item CN1CCN([C@H]2CC[C@@H](n3cc(-c4ccc(Oc5ccccc5)cc4)c4c(N)ncnc43)CC2)CC1 , the value recorded as its Growth Rate is -0.98

Given item C[C@H](CCC(=O)O)[C@H]1CC[C@H]2[C@@H]3[C@H](O)C[C@@H]4C[C@H](O)CC[C@]4(C)[C@H]3C[C@H](O)[C@]12C , the value recorded as its Growth Rate is 0.33

Given item COc1ccc(-n2nc(C(F)(F)F)cc2-c2ccc(Cl)cc2)cc1 , the value recorded as its Growth Rate is -0.87

Given item Cc1c(NC(=O)c2ccc(C(C)(C)C)cc2)cccc1-c1cn(C)c(=O)c(Nc2ccc(C(=O)N3CCOCC3)cc2)n1 , the value recorded as its Growth Rate is -0.1

Given item C=C(C)[C@H]1CN[C@H](C(=O)O)[C@H]1CC(=O)O , the value recorded as its Growth Rate is 0.16

Given item Cl.NC(=O)c1ccccc1Nc1nc(-c2ccc(N3CCOCC3)cc2)cc2ncccc12 , the value recorded as its Growth Rate is -0.47

Given item COc1ccc(-c2coc3cc(O)cc(O)c3c2=O)cc1 , the value recorded as its Growth Rate is 0.58

Given item CC(C)(C)C1CCc2c(sc(NC(=O)c3ccco3)c2C(=O)O)C1 (stereo not drawn) , the value recorded as its Growth Rate is -0.97

Given item Cc1c[nH]c(-c2cnc(NCCNc3ccc(C#N)cn3)nc2-c2ccc(Cl)cc2Cl)n1 , the value recorded as its Growth Rate is 0.81

Given item CC(C)c1cnn2c(NCc3ccccc3)cc(NCCCCCCN)nc12.Cl , the value recorded as its Growth Rate is 0.27

Given item Cc1nc2cccnc2n2c(-c3cc([C@@]4(O)CCCOC4)ccc3Cl)nnc12 , the value recorded as its Growth Rate is -0.24

Given item C[C@@]1(Cc2ccc(C#N)cc2)C(=O)N(c2cc(Cl)cc(Cl)c2)c2ncc(C(=O)NC3(c4nc(C5CCC5)no4)CC3)n21 , the value recorded as its Growth Rate is -0.58

Given item Cc1ncc(C(=O)Nc2cc(C(C)(C)C)on2)cc1-n1cc(-c2cnn(C)c2C)nn1.Cl , the value recorded as its Growth Rate is 0.14

Given item CN1CCN(c2ccc(-n3cc(-c4ccncc4OCC4CCNCC4)cn3)cc2)CC1 , the value recorded as its Growth Rate is 0.33

Given item C[C@@H]1Cc2c([nH]c3ccccc23)[C@@H](c2c(F)cc(/C=C/C(=O)O)cc2F)N1CC(C)(C)F , the value recorded as its Growth Rate is -0.38

Given item Cc1noc(C)c1-c1cnc2c(-c3ccc(C(=O)O)cc3)cn([C@@H](C)c3ccccn3)c2c1 , the value recorded as its Growth Rate is -0.59
